All values here come from patent US11401278B2.

The reader will find IC50 measurements below, all made with SUDHL10.
Numeric answer only, unit nM assumed.

Given the entry CCc1c2c(nn1C)C(CCN1CCOCC1)N(C)S(=O)(=O)CCCn1c(C(=O)O)c(CCCOc3cccc4cc(F)ccc34)c3ccc(Cl)c-2c31 (racemic) [Example 74] , what IC50 was observed with SUDHL10?
17

Quick check: IC50 on SUDHL10, item CCc1c2c(nn1C)C(CCN1CCOCC1)N(C)S(=O)(=O)CCCn1c(C(=O)O)c(CCCOc3cccc4cc(F)ccc34)c3ccc(Cl)c-2c31 (racemic) [Example 73] ?
19

Now look at this one.
Write down the reported IC50 of CCc1c2c(nn1C)C(CCN1CCOCC1)N(C)S(=O)(=O)CCCn1c(C(=O)O)c(CCCOc3cccc4cc(F)ccc34)c3ccc(Cl)c-2c31 (single isomer, unassigned) [Example 72] , test system: SUDHL10.
34

###

biological target: MCL-1 (Homo sapiens (Human), UniProt Q07820, K194A/K197A/R201A); experiment: Protein-protein interaction assay MCL-1/Noxa BH3 peptide (MCL-1 assay, TR-FRET); assay type: binding; conditions: MBP-MCL-1 / Noxa BH3 peptide, median
Sequence (Q07820 whole entry K194A/K197A/R201A, looked up): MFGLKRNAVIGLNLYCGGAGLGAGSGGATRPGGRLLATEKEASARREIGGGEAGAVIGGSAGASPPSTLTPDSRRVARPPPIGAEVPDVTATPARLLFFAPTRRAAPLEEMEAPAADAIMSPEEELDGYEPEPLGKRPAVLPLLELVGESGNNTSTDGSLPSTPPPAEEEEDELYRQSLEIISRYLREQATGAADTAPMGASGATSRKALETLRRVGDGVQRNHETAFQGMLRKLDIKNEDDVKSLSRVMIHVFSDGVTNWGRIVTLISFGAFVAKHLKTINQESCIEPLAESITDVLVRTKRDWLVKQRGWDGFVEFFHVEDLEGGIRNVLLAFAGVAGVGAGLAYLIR
# note: boundary value 4 nM maps to false; IC50 below it maps to true

Record excerpt, results attached:
Dear reviewer, please state whether Cc1c2c(nn1C)CN(C)S(=O)(=O)CCCn1c(C(=O)O)c(CCCOc3cccc4c3CCC4)c3ccc(F)c-2c31 (racemic) [Example 27] has IC50 strictly beneath 4 nM.
true

Please determine if Cc1c2c(nn1C)CNS(=O)(=O)CCCn1c(C(=O)O)c(CCCOc3cccc4cc(F)ccc34)c3ccc(Cl)c-2c31 (single isomer, unassigned; enantiomer 2) [Example 52] is below 4 nM in terms of IC50.
false

Problem: For the molecule Cc1c2c(nn1C)CN(C)S(=O)(=O)CCCn1c(C(=O)O)c(CCCOc3cccc4ccccc34)c3ccc(Cl)c-2c31 (single isomer, unassigned; enantiomer 2) [Example 6] , is IC50 under 4 nM?
false

# check: IC50 < 4 nM for Cc1c2c(nn1C)CN(C1CC1)S(=O)(=O)CCCn1c(C(=O)O)c(CCCOc3cccc4cc(F)ccc34)c3ccc(Cl)c-2c31 (single isomer, unassigned; enantiomer 1) [Example 42]
true

We next turn to a different molecule, shown below.
Please let me know if CCc1c2c(nn1C)CN(C)S(=O)(=O)CCCn1c(C(=O)O)c(CCCOc3cccc4ccccc34)c3ccc(F)c-2c31 (racemic) [Example 31] shows IC50 below 4 nM.
true

###

biological target: MCL-1 (Homo sapiens (Human), UniProt Q07820, K194A/K197A/R201A); experiment: Protein-protein interaction assay MCL-1/Noxa BH3 peptide (MCL-1 assay, TR-FRET); type: binding; conditions: MBP-MCL-1 / Noxa BH3 peptide, median
# IC50 annotations
Just the number please, in nM, no unit attached.

Previously resolved entries follow.
Given the entry Cc1c2c(nn1C)CN(C)S(=O)(=O)CCCC1C(C(=O)O)=C(CCCOc3cccc4ccccc34)c3cccc-2c31 (racemic) [Example 10] , report its measured IC50.
7.4

Item under review: CCc1c2c(nn1C)CN(C1CC1)S(=O)(=O)CCCn1c(C(=O)O)c(CCCOc3cccc4cc(F)ccc34)c3ccc(Cl)c-2c31 (single isomer, unassigned; enantiomer 2) [Example 55] . Reported IC50?
16

Field request: IC50 | item: CCc1c2c(nn1C)CN(C)S(=O)(=O)CCCn1c(C(=O)O)c(CCCOc3cccc4cc(F)ccc34)c3ccc(Cl)c-2c31 (single isomer, unassigned; enantiomer 2) [Example 37]
11

So what does the record say about IC50 for CCc1c2c(nn1C)C(CCN1CCOCC1)N(C)S(=O)(=O)CCCn1c(C(=O)O)c(CCCOc3cccc4cc(F)ccc34)c3ccc(Cl)c-2c31 (single isomer, unassigned) [Example 72] ?
1.1

Find the recorded IC50 belonging to CCc1c2c(nn1C)CN(C)S(=O)(=O)CCCn1c(C(=O)O)c(CCCOc3ccc(F)c4ccccc34)c3ccc(F)c-2c31 (racemic) [Example 35] and report it.
3.5

Which measured IC50 value corresponds to CCc1c2c(nn1C)C(CCC1CCOCC1)N(C)S(=O)(=O)CCCn1c(C(=O)O)c(CCCOc3cccc4cc(F)ccc34)c3ccc(Cl)c-2c31 (single isomer, unassigned; enantiomer 1) [Example 61] ?
0.94

Bench note: what IC50 did CCc1c2c(nn1C)CN(CC)S(=O)(=O)CCCn1c(C(=O)O)c(CCCOc3cccc4cc(F)ccc34)c3ccc(Cl)c-2c31 (single isomer, unassigned; enantiomer 1) [Example 57] show?
0.48

Report IC50 for Cc1c2c(nn1C)CN(C)S(=O)(=O)CCCn1c(C(=O)O)c(CCCOc3cccc4ccccc34)c3ccc(F)c-2c31 (racemic) [Example 26] please.
3.6

Could you share which IC50 value was measured for Cc1c2c(nn1C)CN(C)S(=O)(=O)CCCn1c(C(=O)O)c(CCCOc3cccc4ccccc34)c3ccc(Cl)c-2c31 (single isomer, unassigned; enantiomer 1) [Example 5] ?
0.52

What does the record list as IC50 for Cc1c2c(nn1C)CN(C)S(=O)(=O)CCCn1c(C(=O)O)c(CCCOc3cccc4cc(F)ccc34)c3ccc(F)c-2c31 (single isomer, unassigned; enantiomer 2) [Example 39] ?
0.89

Continuing:
What IC50 value was documented for this molecule, Cc1c2c(nn1C)CN(C)S(=O)(=O)CCCn1c(C(=O)O)c(CCCOc3cccc4ccccc34)c3ccc(Cl)c-2c31 (racemic) [Example 4] ?
1.2

Suppose we examine the molecule CCc1c2c(nn1C)C(CCC1CCOCC1)N(C)S(=O)(=O)CCCn1c(C(=O)O)c(CCCOc3cccc4cc(F)ccc34)c3ccc(Cl)c-2c31 (single isomer, unassigned; enantiomer 3) [Example 63] ; what IC50 value has been reported?
1.1

Looking for the measured IC50 of COc1ccc(CN2Cc3nn(C)c(C)c3-c3c(Cl)ccc4c(CCCOc5cccc6cc(F)ccc56)c(C(=O)O)n(c34)CCCS2(=O)=O)c(OC)c1 (racemic) [Example 49] , can you help?
3.2

Form field: reported IC50 of Cc1c2c(nn1C)CN(C1CC1)S(=O)(=O)CCCn1c(C(=O)O)c(CCCOc3cccc4cc(F)ccc34)c3ccc(Cl)c-2c31 (racemic) [Example 41]
1.3

Fill in: IC50 of Cc1c2c(nn1C)C(CCN1CCOCC1)N(C)S(=O)(=O)CCCn1c(C(=O)O)c(CCCOc3cccc4cc(F)ccc34)c3ccc(Cl)c-2c31 (racemic) [Example 48] is ___
0.93
